Tested on: MDA-MB-231 breast
Assay: NCI tumour cell line growth inhibition, 48 h
Assign TGI to each entry below.

Sample records with TGI:
CNCCCNc1nc2ccccc2c2c(=O)c3cc(Cl)ccc3sc12 : 2.67 µM
O=C(c1cccc(C(=O)c2ccc3c4c(cccc24)C(=O)N(c2ccccc2)C3=O)c1)c1ccc2c3c(cccc13)C(=O)N(c1ccccc1)C2=O : > 100 µM

Would you mind listing TGI for each of the following compounds?
1. O=C(Oc1ccccc1Cl)c1ccccc1Nc1ccnc(C(F)(F)F)c1
2. O=[N+]([O-])/C(C(Cl)=C(Cl)Cl)=C(/Sc1ccccc1)N1CCCCC1

0.502 µM
> 100 µM

Would you mind listing TGI for each of the following compounds?
1. Cc1ccc(S(=O)(=O)N2CCCC2C(=O)O[C@H]2CC[C@H]3CC=C[C@H]32)cc1 (some centres not stated)
2. COc1cc2c(cc1OC)C(N)CC2=O (configuration not stated)
3. COc1cccc2[nH]c(-c3ccccn3)nc12
4. C#Cc1cccc(Nc2nc3ccc([N+](=O)[O-])cc3nc2Nc2cccc(C#C)c2)c1

1. > 100 µM
2. > 100 µM
3. > 100 µM
4. 0.807 µM

Would you mind listing TGI for each of the following compounds?
1. Nc1c(C(=O)Nc2ccccc2F)sc2nc3c(cc12)C(=O)CCC3
2. Cc1ccc(S(=O)(=O)Oc2nc3ccccc3nc2N(S(=O)(=O)c2ccc(C)cc2)S(=O)(=O)c2ccc(C)cc2)cc1
3. Cc1ccc(S(=O)(=O)NC(=O)Nc2ccc(S(N)(=O)=O)cc2S(N)(=O)=O)cc1
4. COc1cc(N(CCC#N)CCC#N)ccc1/C(N=Nc1ccccc1)=N/NC(=O)c1cc(Br)ccc1O
5. C=C(C)[C@@H]1CC[C@]2(COC3CCCCO3)CC[C@]3(C)[C@H](CC[C@@H]4[C@@]5(C)C=C(C=O)C(=O)C(C)(C)[C@@H]5CC[C@]43C)[C@@H]12 (some centres not stated)

["> 100 µM", "> 100 µM", "> 100 µM", "62.6 µM", "3.82 µM"]

Would you mind listing TGI for each of the following compounds?
1. O=C(O)CCCOc1cc(-c2ccccc2F)nc2cc3c(cc12)OCO3
2. NC(=Nc1ccc(O)cc1)S(=O)O
3. CC(=O)OC1CC[C@]2(C)C3CC[C@@]4(C)C(CCC4[C@H](C)CCCC(C)C)[C@@H]3CCC2(Br)C1 (some centres not stated)
4. C=CC(C)CCC(C/C=C(\C)CCC=C(C)C)C(=C)CCCC(C)C (configuration not stated)
5. C=C(Cl)C(=C)CCC(Cl)C(C)C (configuration not stated)

["> 100 µM", "> 100 µM", "38 µM", "> 100 µM", "> 100 µM"]
